Cited source for all entries: paper PMC10162847

System: HCoV-229E
Experiment: microbe, parasite or virus in culture
Type: cell-based
Conditions: Human coronavirus 229E, Huh-7, read-out: EC50, HCoV-229E replication, MTT assay
reported_metric: EC50 (µM)
Numeric answer only, unit µM assumed.

* O=c1c(O)c(-c2cc(O)c(O)c(O)c2)oc2cc(O)cc(O)c12 | 61.5

Next up:
Suppose we examine the compound CCC(CC)COC(=O)[C@H](C)N[P@](=O)(OC[C@H]1O[C@@](C#N)(c2ccc3c(N)ncnn23)[C@H](O)[C@@H]1O)Oc1ccccc1 [remdesivir, reference compound] ; what EC50 value has been reported? 0.0583

* * *

Assay: in vitro
Conditions: human
reported_metric: CC50 (µM)
Numeric answer only, unit µM assumed.

Suppose we examine the compound CCC(CC)COC(=O)[C@H](C)N[P@](=O)(OC[C@H]1O[C@@](C#N)(c2ccc3c(N)ncnn23)[C@H](O)[C@@H]1O)Oc1ccccc1 [remdesivir, reference compound] ; what CC50 value has been reported? 108
